Below, each entry is listed with its recorded percent effect (mortality or growth inhibition) at 200 ppm.
system: Plutella xylostella; assay: Example B4: Plutella xylostella (diamond back moth), artificial diet, 24-well, eggs; assay type: in vivo; details: 192 h, application rate 200 ppm, 8 days after infestation, read-out: effect in at least one of the two categories (mortality or growth inhibition)

# compound, result
records = [
    ("CC(c1ncnn1-c1ncccn1)N(CC1CC1)C(=O)c1cc(OC(F)(F)C(F)F)cc(C(F)(F)F)c1 (centres unmarked)", "≥ 80%"),
    ("CC(c1ncnn1-c1ncccn1)N(CC1CC1)C(=O)c1cc(SC(F)F)cc(C(F)(F)F)c1 (centres unmarked)", "≥ 80%"),
    ("CC(c1ncnn1-c1ncccn1)N(CC1CC1)C(=O)c1cc(OC(F)(F)F)cc(C(F)(F)F)c1 (centres unmarked)", "≥ 80%"),
    ("CC(NC(=O)c1cc(OCC(F)(F)F)cc(C(F)(F)F)c1)c1ncnn1-c1ccc(F)cn1 (centres unmarked)", "≥ 80%"),
    ("CC(NC(=O)c1cc(OC(F)F)cc(C(F)(F)F)c1)c1ncnn1-c1ncccc1F (centres unmarked)", "≥ 80%"),
    ("CC(NC(=O)c1cc(SCC(F)(F)F)cc(C(F)(F)F)c1)c1ncnn1-c1ccccn1 (centres unmarked)", "≥ 80%"),
    ("CC(NC(=O)c1cc(SCC(F)(F)F)cc(C(F)(F)F)c1)c1ncnn1-c1ncccn1 (centres unmarked)", "≥ 80%"),
]

# context switch: different compound, same percent effect (mortality or growth inhibition) at 200 ppm
Ask | What value of measured percent effect (mortality or growth inhibition) at 200 ppm is listed for CC(NC(=O)c1cc(OC(F)F)cc(C(F)(F)F)c1)c1ncnn1-c1ncccn1 (centres unmarked) ?
Reply | ≥ 80%

----------
Below, each entry is listed with its recorded mortality at 50 ppm.
Tested on: Myzus persicae
Assay: Example B10: Myzus persicae (green peach aphid), sucrose solution, 96-well
Type: in vivo
Details: 120 h, application rate 50 ppm, 5 days after infestation
Description: Example B10: Myzus persicae (Green Peach Aphid) Test compounds prepared from 10,000 ppm DMSO stock solutions were applied by a liquid handling robot into 96-well microtiter plates and mixed with a sucrose solution. Parafilm was stretched over the 96-well microtiter plate and a plastic stencil with 96 holes was placed onto the plate. Aphids were sieved into the wells directly onto the Parafilm. […] The samples were assessed for mortality 5 days after infestation.

# molecule, readout type, result
rows = [
    ("CC(NC(=O)c1cc(OCC(F)(F)F)cc(C(F)(F)F)c1)c1ncnn1-c1ncccc1F (stereo not shown)", "mortality at 50 ppm", "≥ 80%"),
]

Ask | What value of measured mortality at 50 ppm is listed for CC(c1ncnn1-c1ncccn1)N(CC1CC1)C(=O)c1cc(SC(F)F)cc(C(F)(F)F)c1 (stereo not shown) ?
Reply | ≥ 80%

Ask | What value of measured mortality at 50 ppm is listed for CC(NC(=O)c1cc(OCC(F)F)cc(C(F)(F)F)c1)c1ncnn1-c1ncccn1 (stereo not shown) ?
Reply | ≥ 80%

Ask | What value of measured mortality at 50 ppm is listed for CC(NC(=O)c1cc(OC(F)(F)F)cc(C(F)(F)F)c1)c1ncnn1-c1ncccn1 (stereo not shown) ?
Reply | ≥ 80%
